biological target: rhesus monkey MC5R (membranes) (Macaca mulatta, UniProt A0A5F8AEA9)
Sequence (A0A5F8AEA9 1-325): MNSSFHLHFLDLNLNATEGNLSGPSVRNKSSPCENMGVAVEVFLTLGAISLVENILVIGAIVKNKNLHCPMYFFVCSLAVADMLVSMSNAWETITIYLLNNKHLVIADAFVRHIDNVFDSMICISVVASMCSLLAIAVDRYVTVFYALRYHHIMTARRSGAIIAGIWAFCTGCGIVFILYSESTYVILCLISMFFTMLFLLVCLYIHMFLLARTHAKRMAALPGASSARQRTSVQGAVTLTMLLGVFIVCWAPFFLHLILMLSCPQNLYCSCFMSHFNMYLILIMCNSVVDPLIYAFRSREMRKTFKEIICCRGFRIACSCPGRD
pIC50: −log10 of the molar value.

entry-smiles | pIC50
O=C(NC[C@@H]1CCN(CC(c2ccccc2)c2ccccc2)C(=O)[C@H](CCCN2CCCCC2)N1)c1ccc2ccccc2c1 | 5.14

====

Below: a set of entries, each annotated with reported IC50.
Target: human MC5R (hMC5R) (Homo sapiens)
Construct: purchased Perkin Elmer RBXMC5M400UA
Assay: Human MC5R radioligand binding assay (membranes, [125I] NDP-MSH displacement)
Settings: hMC5R binding; tested as trifluoroacetate or hydrochloride salts, or free bases; read-out: MC5R radioligand IC50
Method: Assessments of compound binding to human MC5R (hMC5R) ) by displacement of an ^125I-labeled NDP-MSH receptor ligand peptide were performed essentially as described in the data sheets produced by Perkin Elmer to accompany their frozen hMC5R membranes (Perkin Elmer catalog number RBXMC5M400UA). [^125I] NDP-MSH: radiolabeled in house and purified by HPLC: • Na^125I (0.5 mCi, 17.4 Ci/mg) was added to 50 μL sodium phosphate (50 mM, pH7.4) in an eppendorf tube precoated with IODOGEN. […]

compound | tested-on | IC50
CCC(CC)CN1CC[C@@H](CNC(=O)c2ccc3cc(Br)ccc3c2)N[C@@H](CCN2CCCCC2)C1=O | human MC5R (hMC5R) (Homo sapiens) | < 100 nM
CCC(CC)CN1CC[C@@H](CNC(=O)c2ccc3cc(F)ccc3c2)N[C@@H](CCN)C1=O | human MC5R (hMC5R) (Homo sapiens) | < 1000 nM
O=C(/C=C/c1ccc(OC(F)(F)F)cc1)NC[C@@H]1CCN(Cc2cc(Cl)cc(Cl)c2)C(=O)[C@H](CCN2CCCCC2)N1 | human MC5R (hMC5R) (Homo sapiens) | < 10 nM
CC1CC(C)CC(CN2CC[C@@H](CNC(=O)/C=C/c3ccc(Cl)cc3)N[C@@H](CCN)C2=O)C1 (some centres unmarked) | human MC5R (hMC5R) (Homo sapiens) | < 1000 nM
CC(C)(NC(=O)/C=C/c1ccc(Cl)cc1)[C@@H]1CCN(CC(c2ccccc2)c2ccccc2)C(=O)[C@H](CCN2CCCCC2)N1 | human MC5R (hMC5R) (Homo sapiens) | < 1000 nM
CC[C@H](CN1CC[C@@H](CNC(=O)c2ccc(Cl)c(Cl)c2)N[C@@H](CCN(C(C)C)C(C)C)C1=O)c1ccccc1 | human MC5R (hMC5R) (Homo sapiens) | < 10 nM
CC[C@H](CN1CC[C@@H](CNC(=O)c2ccc(Cl)c(Cl)c2)N[C@@H](CCNCc2ccccc2)C1=O)c1ccccc1 | human MC5R (hMC5R) (Homo sapiens) | < 100 nM
N=C(N)NCCC[C@@H]1N[C@H](CNC(=O)c2ccc(-c3ccccc3)cc2)CCN(CC(c2ccccc2)c2ccccc2)C1=O | human MC5R (hMC5R) (Homo sapiens) | < 100 nM
CC[C@H](CN1CC[C@@H](CNC(=O)c2ccc(Cl)c(Cl)c2)N[C@@H](CCN2CCCCC2)C1=O)c1ccccc1 | human MC5R (hMC5R) (Homo sapiens) | < 100 nM
N=C(N)NCCC[C@@H]1N[C@H](CNC(=O)c2ccc3ccccc3c2)CCN(CC23CC4CC(CC(C4)C2)C3)C1=O | human MC5R (hMC5R) (Homo sapiens) | < 1000 nM
O=C(NCC[C@@H]1CCN(CC(c2ccccc2)c2ccccc2)C(=O)[C@H](CCN2CCCC2)N1)c1ccc2ccccc2c1 | human MC5R (hMC5R) (Homo sapiens) | < 1000 nM
CCC(CN1CC[C@@H](CNC(=O)c2ccc3cc(Cl)ccc3c2)N[C@@H](CCN2CCCCC2)C1=O)C1CC1 (some centres unmarked) | human MC5R (hMC5R) (Homo sapiens) | < 100 nM
NCCC[C@@H]1N[C@H](CNC(=O)c2ccc3ccccc3c2)CCN(Cc2ccc(Cl)cc2)C1=O | human MC5R (hMC5R) (Homo sapiens) | < 10000 nM
CC[C@H](CN1CC[C@@H](CNC(=O)c2ccc3cc(Cl)ccc3c2)N[C@@H](CCN)C1=O)C(C)C | human MC5R (hMC5R) (Homo sapiens) | < 1000 nM

====

target: human MC5R (hMC5R) (Homo sapiens, UniProt P33032); construct: purchased Perkin Elmer RBXMC5M400UA; assay: Human MC5R radioligand binding assay (membranes, [125I] NDP-MSH displacement); settings: hMC5R binding; tested as trifluoroacetate or hydrochloride salts, or free bases; read-out: MC5R radioligand IC50
Sequence (P33032 whole entry): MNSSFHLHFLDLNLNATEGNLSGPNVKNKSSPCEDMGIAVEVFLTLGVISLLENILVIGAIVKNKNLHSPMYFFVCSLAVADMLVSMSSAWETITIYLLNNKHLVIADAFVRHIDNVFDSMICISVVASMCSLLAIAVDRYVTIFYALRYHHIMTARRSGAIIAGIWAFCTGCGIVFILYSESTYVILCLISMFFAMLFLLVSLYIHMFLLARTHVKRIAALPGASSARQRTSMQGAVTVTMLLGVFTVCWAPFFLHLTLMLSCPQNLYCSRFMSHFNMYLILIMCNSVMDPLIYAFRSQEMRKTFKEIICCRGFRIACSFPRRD
pIC50: −log10 of the molar value.
The entries below come with measured pIC50 values attached.

molecule | pIC50
C/C(=C\c1ccccc1)C(=O)NC[C@@H]1CCN(CC(c2ccccc2)c2ccccc2)C(=O)[C@H](CCCNC(=N)N)N1 [Compound 173] | > 6.00
CC1CC(C)CC(CN2CC[C@@H](CNC(=O)c3ccc4ccccc4c3)N[C@@H](CCN)C2=O)C1 (stereo partly shown) [Compound 376] | > 6.00
O=C(NC[C@@H]1CCN(CC(c2ccccc2)c2ccccc2)C(=O)[C@H](CCN2CCCCC2)N1)OCc1ccccc1 [Compound 412] | > 6.00
CC[C@H](CN1CC[C@@H](CNC(=O)c2ccc(Cl)c(Cl)c2)N[C@@H](CCNC(C)C)C1=O)c1ccccc1 [Compound 465] | > 7.00
CCC(CN1CC[C@@H](CNC(=O)c2ccc(Cl)c(Cl)c2)N[C@@H](CCN2CCCCC2)C1=O)C1CC1 (stereo partly shown) [Compound 486] | > 6.00
CC[C@H](CN1CC[C@@H](CNC(=O)c2ccc(Cl)c(Cl)c2)N[C@@H](CCN2CCCCCC2)C1=O)c1ccccc1 [Compound 452] | > 7.00
N=C(N)NCCC[C@@H]1N[C@H](CNC(=O)c2cnc3ccccc3c2)CCN(CC2CCCCC2)C1=O [Compound 482] | > 6.00

====

Parameter pIC50: see the listing below.
biological target: rhesus monkey MC5R (whole cells) (Macaca mulatta, UniProt A0A5F8AEA9); assay: MC5R radioligand binding, rhesus monkey MC5R whole cells
pIC50: −log10 of the molar value.
assay-readout: pIC50

entry-smiles | assay-readout | qualifier-sign | result-value
O=C(NC[C@@H]1CCN(CC(c2ccccc2)c2ccccc2)C(=O)[C@H](CCCN2CCCCC2)N1)c1ccc2ccccc2c1 | pIC50 | < | 5.30
N=C(N)NCCC[C@@H]1N[C@H](CNC(=O)c2ccc3ccccc3c2)CCN(CC(c2ccccc2)c2ccccc2)C1=O | pIC50 | = | 5.52

====

molecular target: human MC5R (hMC5R) (Homo sapiens); construct: purchased Perkin Elmer RBXMC5M400UA; assay: Human MC5R radioligand binding assay (membranes, [125I] NDP-MSH displacement); settings: hMC5R binding; tested as trifluoroacetate or hydrochloride salts, or free bases; read-out: MC5R radioligand IC50

entry-smiles | tested-on | IC50
CCC(C)(CC)CN1CC[C@@H](CNC(=O)c2ccc3cc(Cl)ccc3c2)N[C@@H](CCN2CCCCC2)C1=O | human MC5R (hMC5R) (Homo sapiens) | < 100 nM
NCCCC[C@@H]1N[C@H](CNC(=O)c2cc3ccccc3o2)CCN(CC(c2ccccc2)c2ccccc2)C1=O | human MC5R (hMC5R) (Homo sapiens) | < 10000 nM
O=C(C=Cc1ccccc1)NC[C@@H]1CCN(CC(c2ccccc2)c2ccccc2)C(=O)[C@H](CCN2CCCCC2)N1 | human MC5R (hMC5R) (Homo sapiens) | < 100 nM
O=C(NC[C@@H]1CCN(CC(c2ccccc2)c2ccccc2)C(=O)[C@H](CCCN2CCCCC2)N1)c1ccc2cc(F)ccc2c1 | human MC5R (hMC5R) (Homo sapiens) | < 100 nM
NCCCC[C@@H]1N[C@H](CNC(=O)Cc2c[nH]c3ccccc23)CCN(Cc2cccc3ccccc23)C1=O | human MC5R (hMC5R) (Homo sapiens) | < 10000 nM
CC[C@H](CN1CC[C@@H](CNC(=O)c2ccc3cc(Cl)ccc3c2)N[C@@H](CNC(=N)N)C1=O)c1ccccc1 | human MC5R (hMC5R) (Homo sapiens) | < 100 nM
O=C(NC[C@@H]1CCN(CC(c2ccccc2)c2ccccc2)C(=O)[C@H](CCN2CCCCC2)N1)c1ccc2ccccc2c1 | human MC5R (hMC5R) (Homo sapiens) | < 100 nM

====

Molecular target: human MC5R (hMC5R) (Homo sapiens)
Construct: purchased Perkin Elmer RBXMC5M400UA
Experiment: Human MC5R radioligand binding assay (membranes, [125I] NDP-MSH displacement)
Settings: hMC5R binding; tested as trifluoroacetate or hydrochloride salts, or free bases; read-out: MC5R radioligand IC50
Description: Assessments of compound binding to human MC5R (hMC5R) ) by displacement of an ^125I-labeled NDP-MSH receptor ligand peptide were performed essentially as described in the data sheets produced by Perkin Elmer to accompany their frozen hMC5R membranes (Perkin Elmer catalog number RBXMC5M400UA). [^125I] NDP-MSH: radiolabeled in house and purified by HPLC: • Na^125I (0.5 mCi, 17.4 Ci/mg) was added to 50 μL sodium phosphate (50 mM, pH7.4) in an eppendorf tube precoated with IODOGEN. […]

compound | IC50
N=C(N)NCCC[C@@H]1N[C@H](CNC(=O)c2ccc3ccccc3c2)CCN(CC(C(=O)N2CCCCC2)c2ccccc2)C1=O (stereo partly shown) [Compound 343] | < 10 µM
NCCC[C@@H]1N[C@H](CNC(=O)c2ccc(-c3ccccc3)cc2)CCN(CC(c2ccccc2)c2ccccc2)C1=O [Compound 106] | < 1 µM
NCCC[C@@H]1N[C@H](CNC(=O)c2ccc3ccccc3c2)CCN(Cc2cc(Cl)ccc2Cl)C1=O [Compound 314] | < 10 µM
N=C(N)NCCC[C@@H]1N[C@H](CNC(=O)c2ccc3ccccc3c2)CCN(Cc2cccc3ccccc23)C1=O [Compound 263] | < 10 µM
